Target: Human immunodeficiency virus type 1 integrase (Human immunodeficiency virus 1)
Sequence (Q7ZJM1 whole entry): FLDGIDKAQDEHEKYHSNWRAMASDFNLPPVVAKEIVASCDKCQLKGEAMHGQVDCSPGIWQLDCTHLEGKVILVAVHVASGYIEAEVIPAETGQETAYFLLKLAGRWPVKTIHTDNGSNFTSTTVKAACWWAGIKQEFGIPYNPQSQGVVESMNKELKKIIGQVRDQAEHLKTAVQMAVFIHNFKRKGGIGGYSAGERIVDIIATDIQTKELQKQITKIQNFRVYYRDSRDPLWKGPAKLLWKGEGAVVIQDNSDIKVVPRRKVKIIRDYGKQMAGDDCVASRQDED
Assay: Inhibition of HIV-1 integrase-mediated 3'-processing
MEASUREMENT KIND: pIC50
Quick note: pIC50 means taking -log10 of the concentration in moles per liter.

Here's what some known entries look like.
[[record]]
compound = "O=C(O)c1ccc2cc(O)c(O)cc2c1"
test_target = "Human immunodeficiency virus type 1 integrase (Human immunodeficiency virus 1)"
measured_value = 5.27

[[record]]
compound = "COC(=O)c1ccc2c(O)c(O)ccc2c1"
test_target = "Human immunodeficiency virus type 1 integrase (Human immunodeficiency virus 1)"
measured_value = 4.23


Inquiry: Lab note: need pIC50 with Human immunodeficiency virus type 1 integrase (Human immunodeficiency virus 1) for entry O=C(O)c1ccc2cc(O)ccc2c1 , please look it up.
Reply text: 3.76

Inquiry: Form field - read-out: pIC50; system: Human immunodeficiency virus type 1 integrase (Human immunodeficiency virus 1); submitted item: O=C(O)c1ccc2c(O)c(O)ccc2c1
Reply text: 4.27
